Tested on: K562 CRISPRi cells
Test method notes: Perturb-seq pooled growth measurement (sgRNA counts, growth phenotype γ, relative activity)
Format: cell-based, human
Assay setup: sequencing read counts; 5 days of growth (day seven after transduction)
Reported endpoint: Perturb-seq pooled growth sgRNA counts, d5

Substance	Target of assay	Measured value
CDC23_−_137548987.23-P1P2_08: sgRNA targeting CDC23, GACAGCCATCGGGACCATGG, SEQ ID NO: 99 (listed as DNA, chemistry not fully specified)	K562 CRISPRi cells	1531
RPS14_+_149829238.23-P1P2_01: sgRNA targeting RPS14, GAGACCCGGGCGCGACAATC, SEQ ID NO: 46 (listed as DNA, chemistry not fully specified)	K562 CRISPRi cells	1474
TUBB_+_30688126.23-P1_00: sgRNA targeting TUBB, GCGGCAGGAAGGTTCTGAGA, SEQ ID NO: 23 (listed as DNA, chemistry not fully specified)	K562 CRISPRi cells	2722
ATP5E_−_57607036.23-P1P2_00: sgRNA targeting ATP5E, GGTGTCCAGGGGCACTCTGT, SEQ ID NO: 151 (listed as DNA, chemistry not fully specified)	K562 CRISPRi cells	12109
MTOR_+_11322547.23-P1P2_10: sgRNA targeting MTOR, GGGCAGGGGGCCTGAAGCAG, SEQ ID NO: 150 (listed as DNA, chemistry not fully specified)	K562 CRISPRi cells	7332
CDC23_−_137548987.23-P1P2_02: sgRNA targeting CDC23, GACAGCTACCGGGACCATGG, SEQ ID NO: 98 (listed as DNA, chemistry not fully specified)	K562 CRISPRi cells	832
MTOR_+_11322547.23-P1P2_05: sgRNA targeting MTOR, GGGCAGGGGGCTTGAAGCGG, SEQ ID NO: 148 (listed as DNA, chemistry not fully specified)	K562 CRISPRi cells	4083
POLR1D_+_28196016.23-P1_03: sgRNA targeting POLR1D, GGTAAGCAAGGACCGACCGA, SEQ ID NO: 75 (listed as DNA, chemistry not fully specified)	K562 CRISPRi cells	2365
POLR2H_+_184081251.23-P1P2_00: sgRNA targeting POLR2H, GGGGCCACGAGAGCAGCAGA, SEQ ID NO: 28 (listed as DNA, chemistry not fully specified)	K562 CRISPRi cells	947
COX11_+_53045977.23-P1P2_00: sgRNA targeting COX11, GGCTCTGGCGTCCTGGATGG, SEQ ID NO: 141 (listed as DNA, chemistry not fully specified)	K562 CRISPRi cells	11785
GINS1_−_25388381.23-P1P2_08: sgRNA targeting GINS1, GGACTAGAGCGAAAGGAGTG, SEQ ID NO: 94 (listed as DNA, chemistry not fully specified)	K562 CRISPRi cells	2461

Hey, just so you know, these numbers are from patent US20220259593A1.
